Each recorded value in this set is attributed to PubChem BioAssay.

- protocol_text: P. aeruginosa biofilm formation inhibitors, primary screen, strain PAO1, LB-PBS medium, absorbance 600 nm (AID 1176); note: test concentration not given here
- recorded_conditions: P. aeruginosa PAO1 growth/biofilm, A600, 12 h; higher = more signal
quantity_kind: z-score
Enter the number alone.

Inquiry: Which z-score value is on record for COCCOC(=O)N1C(=O)[C@@]2(c3cc(C#CCNC(N)=O)ccc31)[C@H](C(=O)N1CCc3cc(OC)c(OC)cc3C1)[C@H]1C(=O)O[C@H](c3ccccc3)[C@H](c3ccccc3)N1[C@@H]2c1ccccc1OCCO ?
Reply text: 1.54

Inquiry: Which z-score value is on record for CCCCCCCCCCC(O)C1C=CC2C(=O)N(C)C(=O)C2N1NC(=O)OC(C)(C)C (stereo not given) ?
Reply text: 0.0337

Inquiry: Which z-score value is on record for [N-]=[N+]=NCc1ccccc1C[C@]1(C(N)=O)N=C(c2ccc(OCCCO)cc2)O[C@H]1c1ccccc1 ?
Reply text: -0.786

Inquiry: Which z-score value is on record for CO[C@H]1O[C@H](CO)[C@@H](OC(=O)Nc2ccc3c(c2)OCO3)[C@H](OC(=O)c2cc3ccccc3[nH]2)[C@H]1OC(=O)c1cc2ccccc2[nH]1 ?
Reply text: 0.69

Inquiry: Which z-score value is on record for C=CCOC(=O)[C@H]1[C@@H]2C(=O)O[C@@H](c3ccccc3)[C@@H](c3ccccc3)N2[C@@H](c2ccc(OCCOC(=O)[C@H]3C[C@H]4C(=O)N[C@@H](CCCCNC(C)=O)C(=O)N4[C@H]3c3ccc(O)cc3)cc2)[C@]12C(=O)Nc1ccccc12 ?
Reply text: 2.52
